// Z-score lookup, one value per entry
Molecular target: Human IP6K1 (Homo sapiens, UniProt Q92551)
Construct: GST (N, cleaved yes); made in house; host or cells: C43 E. coli, pGEX-6P-2
Sequence (Q92551 whole entry): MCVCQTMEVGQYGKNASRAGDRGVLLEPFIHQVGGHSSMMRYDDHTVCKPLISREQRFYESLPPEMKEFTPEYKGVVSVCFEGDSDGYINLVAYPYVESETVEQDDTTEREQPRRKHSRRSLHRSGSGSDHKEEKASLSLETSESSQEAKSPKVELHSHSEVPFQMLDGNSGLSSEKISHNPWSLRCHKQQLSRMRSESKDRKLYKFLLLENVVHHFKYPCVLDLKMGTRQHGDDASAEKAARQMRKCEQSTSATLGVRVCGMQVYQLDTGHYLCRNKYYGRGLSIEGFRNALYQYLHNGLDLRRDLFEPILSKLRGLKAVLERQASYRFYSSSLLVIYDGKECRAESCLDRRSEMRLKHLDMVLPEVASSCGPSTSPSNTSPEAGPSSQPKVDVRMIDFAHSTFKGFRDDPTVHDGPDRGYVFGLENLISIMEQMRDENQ
Assay: IP6K1 high-throughput screen of the Sigma LOPAC (ADP-Glo Max, single point);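 further: final compound concentration 10µM in 5% DMSO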
Type: biochemical
Conditions: LOPAC single-point screen; Z-score relative to plate average and StDev

{"compound": "O=c1cc(-c2ccc(O)c(O)c2)oc2cc(O)cc(O)c12", "Z-score": -0.6038}
{"compound": "CN1CCN(CC/C=C2/c3ccccc3Sc3ccc(S(=O)(=O)N(C)C)cc32)CC1.Cl [Thiothixene hydrochloride]", "Z-score": -0.6032}
{"compound": "CC(=O)Oc1ccccc1C(=O)O", "Z-score": -0.8741}

* * *

// Raw Signal lookup, one value per entry
Target: Human IP6K1 (Homo sapiens, UniProt Q92551)
Construct: GST (N, cleaved yes); made in house; host or cells: C43 E. coli, pGEX-6P-2
Experiment: IP6K1 high-throughput screen of the Sigma LOPAC (ADP-Glo Max, single point);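 further: final compound concentration 10µM in 5% DMSO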
Type: biochemical
Conditions: LOPAC single-point screen, ADP-Glo Max raw signal per well
Structures can show the parent of a compound that is named as a salt.
attribute measured: Raw Signal

{"molecule": "c1ccc2c(c1)CCCC2C1=NCCN1 (centres unmarked) [Tetrahydrozoline hydrochloride]", "target or system": "Human IP6K1 (Homo sapiens, UniProt Q92551)", "attribute measured": "Raw Signal", "assay value": 57605}
{"molecule": "CN/C(=N\\c1ccc(C2=NNC(=O)CC2C)cc1)NC#N (centres unmarked) [SKF 94836]", "target or system": "Human IP6K1 (Homo sapiens, UniProt Q92551)", "attribute measured": "Raw Signal", "assay value": 55520}
{"molecule": "CC(C)NCC(O)COc1ccc(CCOCC2CC2)cc1 (centres unmarked) [Betaxolol hydrochloride]", "target or system": "Human IP6K1 (Homo sapiens, UniProt Q92551)", "attribute measured": "Raw Signal", "assay value": 59138}
{"molecule": "COc1cc(-c2ccc(=O)[nH]n2)ccc1OC(F)F [Zardaverine]", "target or system": "Human IP6K1 (Homo sapiens, UniProt Q92551)", "attribute measured": "Raw Signal", "assay value": 57604}
{"molecule": "COC(=O)c1c(-c2cc(OC)c(OC)c(OC)c2)c2ccc(OCc3ccccn3)cc2c(=O)n1-c1ccc(N)cc1.O=S(=O)(O)O [T-1032]", "target or system": "Human IP6K1 (Homo sapiens, UniProt Q92551)", "attribute measured": "Raw Signal", "assay value": 55393}
{"molecule": "Cc1ncc(CNC(=O)N(CCCl)N=O)c(N)n1 [Nimustine hydrochloride]", "target or system": "Human IP6K1 (Homo sapiens, UniProt Q92551)", "attribute measured": "Raw Signal", "assay value": 54692}
{"molecule": "COc1cc(C(O)CN)ccc1O.Cl (racemic) [(±)-Normetanephrine hydrochloride]", "target or system": "Human IP6K1 (Homo sapiens, UniProt Q92551)", "attribute measured": "Raw Signal", "assay value": 54540}
{"molecule": "O=C(O)c1cc(O)cc(C(=O)O)n1 [Chelidamic acid]", "target or system": "Human IP6K1 (Homo sapiens, UniProt Q92551)", "attribute measured": "Raw Signal", "assay value": 56074}
{"molecule": "COc1ccc(C(=O)N2CCCC2=O)cc1 [Aniracetam]", "target or system": "Human IP6K1 (Homo sapiens, UniProt Q92551)", "attribute measured": "Raw Signal", "assay value": 56032}
{"molecule": "COc1ccccc1N1CCN(CCN(C(=O)C2CCCCC2)c2ccccn2)CC1.O=C(O)/C=C\\C(=O)O [WAY-100635 maleate]", "target or system": "Human IP6K1 (Homo sapiens, UniProt Q92551)", "attribute measured": "Raw Signal", "assay value": 54317}
{"molecule": "C[C@]12CC[C@H](O)CC1=CC[C@@H]1[C@@H]2CC[C@]2(C)C(=O)CC[C@@H]12 [trans-Dehydroandrosterone]", "target or system": "Human IP6K1 (Homo sapiens, UniProt Q92551)", "attribute measured": "Raw Signal", "assay value": 53982}
{"molecule": "Cn1ccc2cc3c(cc21)CCN3C(=O)Nc1cccnc1 [SB 206553 hydrochloride]", "target or system": "Human IP6K1 (Homo sapiens, UniProt Q92551)", "attribute measured": "Raw Signal", "assay value": 56981}
{"molecule": "O=c1[nH]c2ccccc2n1C1CCN(CCCC(c2ccc(F)cc2)c2ccc(F)cc2)CC1 [Pimozide]", "target or system": "Human IP6K1 (Homo sapiens, UniProt Q92551)", "attribute measured": "Raw Signal", "assay value": 53926}
{"molecule": "NC(=O)CN1CC(O)CC1=O (centres unmarked) [Oxiracetam]", "target or system": "Human IP6K1 (Homo sapiens, UniProt Q92551)", "attribute measured": "Raw Signal", "assay value": 55053}
{"molecule": "Cc1[nH]c2ccc(O)cc2c1CCN.O=C(O)/C=C\\C(=O)O [2-Methyl-5-hydroxytryptamine maleate]", "target or system": "Human IP6K1 (Homo sapiens, UniProt Q92551)", "attribute measured": "Raw Signal", "assay value": 56336}
{"molecule": "N[C@@H](C(=O)N[C@@H]1C(=O)N2C(C(=O)O)=C(Cl)CS[C@H]12)c1ccccc1 [Cefaclor]", "target or system": "Human IP6K1 (Homo sapiens, UniProt Q92551)", "attribute measured": "Raw Signal", "assay value": 57158}
{"molecule": "c1ccc(-c2ccccn2)nc1 [2,2 -Bipyridyl]", "target or system": "Human IP6K1 (Homo sapiens, UniProt Q92551)", "attribute measured": "Raw Signal", "assay value": 56711}

* * *

Target: Human IP6K1 (Homo sapiens, UniProt Q92551)
Construct: GST (N, cleaved yes); made in house; host or cells: C43 E. coli, pGEX-6P-2
Test: IP6K1 high-throughput screen of the Sigma LOPAC (ADP-Glo Max, single point);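 further: final compound concentration 10µM in 5% DMSO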
Type: biochemical
Details: Sigma LOPAC single-point screen; Z-score from plate average and StDev
Counter-ions that a name gives are not always drawn.
attribute measured: Z-score

{"compound": "NCCc1c[nH]c2ccccc12 [Tryptamine hydrochloride]", "assay value": 0.4725}
{"compound": "O=C(O)c1ccccc1Nc1ccccc1", "assay value": 0.9431}
{"compound": "C#C[C@]1(O)CC[C@H]2[C@@H]3CCC4=Cc5nc6nc7ccccc7n6cc5C[C@]4(C)[C@H]3CC[C@@]21C", "assay value": 0.3995}
{"compound": "CNCC[C@@H](Oc1ccccc1C)c1ccccc1", "assay value": 0.497}
{"compound": "CCCn1c(=O)[nH]c(=O)c2nc[nH]c21", "assay value": 0.5142}
{"compound": "CN1CCN(CC(=O)N2c3ccccc3C(=O)Nc3cccnc32)CC1 [Pirenzepine dihydrochloride]", "assay value": 1.33}
{"compound": "O=C(c1ccc2c(c1)OCCO2)N1CCCCC1", "assay value": 0.528}
{"compound": "CN1C(C(=O)Nc2ccccn2)=C(O)c2ccccc2S1(=O)=O", "assay value": 0.8688}
{"compound": "Oc1ccc(O)cc1 [Hydroquinone]", "assay value": 0.9314}
{"compound": "Cl.NC1C=CC=C(C(=O)O)C1 (stereo not shown) [Gabaculine hydrochloride]", "assay value": 1.088}
{"compound": "COc1ccc(OC)c(C(O)C(C)N)c1 (stereo not shown) [Methoxamine hydrochloride]", "assay value": 0.5341}
{"compound": "CC1=NS(=O)(=O)c2cc(Cl)ccc2N1 [Diazoxide]", "assay value": 0.6466}
{"compound": "Nc1ncnc2c1ncn2C1CCCC1", "assay value": 0.3968}
{"compound": "NC(=O)c1cnccn1 [Pyrazinecarboxamide]", "assay value": 0.4861}
{"compound": "CCOC(=O)[N-]c1cn(N2CCOCC2)n[o+]1", "assay value": 1.083}
{"compound": "Clc1ccccc1C(c1ccccc1)(c1ccccc1)n1ccnc1", "assay value": 0.5509}

* * *

// Raw Signal lookup, one value per entry
Target: Human IP6K1 (Homo sapiens, UniProt Q92551)
Construct: GST (N, cleaved yes); made in house; host or cells: C43 E. coli, pGEX-6P-2
Experiment: IP6K1 high-throughput screen of the Sigma LOPAC (ADP-Glo Max, single point);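 further: final compound concentration 10µM in 5% DMSO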
Type: biochemical
Settings: LOPAC single-point screen, ADP-Glo Max raw signal per well
Where a name gives a salt, the structure may show the parent alone.

{"molecule": "O=C(O)c1cc[c]([Hg][Cl])cc1", "Raw Signal": 56908}
{"molecule": "CCCN(CCC)CCc1cccc2c1CC(=O)N2 [Ropinirole hydrochloride]", "Raw Signal": 53968}
{"molecule": "CC(C)NC[C@@H](O)c1ccc(O)c(O)c1.O=C(O)C(O)C(O)C(=O)O [S(+)-Isoproterenol (+)-bitartrate]", "Raw Signal": 55551}
{"molecule": "CN1Cc2c(N)cccc2C(c2ccccc2)C1 (stereo not shown) [Nomifensine maleate]", "Raw Signal": 56397}

Source listed as paper PMC5706701.
